Tested on: HCC-2998 colon
Experiment: NCI-60 one-dose screen, 48 h (100 = growth as untreated, 0 = no growth, -100 = all killed)
Conditions: 10 µM
The panel holds about 83,000 compounds, 20% with a hit somewhere; the sample as a whole holds those more often.
Record fulfilled whenever growth is at 60% or higher; record not fulfilled when lower.

>  <line_notation>
CC[n+]1c(/C=C/C=C2\N(C)c3ccccc3C2(C)C)sc2ccccc21

>  <system_tested>
HCC-2998 colon

>  <class_label>
not fulfilled

$$$$
>  <line_notation>
Nc1cc(C(F)(F)F)c(-c2cc(N3CCOCC3)nc(N3CCOCC3)n2)cn1

>  <system_tested>
HCC-2998 colon

>  <class_label>
not fulfilled

$$$$
>  <line_notation>
Cc1csc(-c2nnc(Nc3ccc(Oc4ncccc4-c4ccnc(N)n4)cc3)c3ccccc23)c1

>  <system_tested>
HCC-2998 colon

>  <class_label>
not fulfilled

$$$$
>  <line_notation>
O=S1(=O)OC(c2cc(Cl)c(O)c(Br)c2)(c2cc(Cl)c(O)c(Br)c2)c2ccccc21

>  <system_tested>
HCC-2998 colon

>  <class_label>
fulfilled

$$$$

----------
System: A498 renal
Experiment: NCI-60 one-dose screen, 48 h (100 = growth as untreated, 0 = no growth, -100 = all killed)
Conditions: 10 µM unless noted
Compounds without any hit were thinned out: in the full panel of roughly 83,000, 20% have a hit. Active and inactive are the calls of the source. Rule for the calls: active = growth percent below 10; inactive = the rest.
Recorded growth, one value per entry.

>  <compound>
Nc1c2c(c(O)c3c1=C(CO)C=N3)=NCCS2=O (stereo not given)

>  <system_tested>
A498 renal

>  <growth>
-45.6% (active)

$$$$
>  <compound>
C=CC(=O)N1CCC[C@H](n2c(=O)n(-c3ccc(Oc4ccccc4)cc3)c3c(N)ncnc32)C1

>  <system_tested>
A498 renal

>  <growth>
81.2% (inactive)

$$$$
>  <compound>
O=C1C=CC2(NN=C(c3ccccc3)N2c2cccc(Cl)c2)C(Cl)=C1 (stereo not given)

>  <system_tested>
A498 renal

>  <growth>
83.4% (inactive)

$$$$
>  <compound>
c1cc[n+](Cc2c3ccccc3cc3c2ccc2ccccc23)cc1

>  <system_tested>
A498 renal

>  <growth>
80.2% (inactive)

$$$$
>  <compound>
Nc1c(Cl)cccc1[N+](=O)[O-]

>  <system_tested>
A498 renal

>  <growth>
101% (inactive)

$$$$
>  <compound>
COc1cc(Nc2ncc(F)c(Nc3ccc4c(n3)N(COP(=O)(O)O)C(=O)C(C)(C)O4)n2)cc(OC)c1OC

>  <system_tested>
A498 renal

>  <growth>
-70.9% (active)

$$$$
>  <compound>
CCCCn1c(C)nc2cc(Nc3nc(N4CCCCC4)nc4nc[nH]c34)ccc21

>  <system_tested>
A498 renal

>  <growth>
34.3% (inactive)

$$$$
>  <compound>
CCN1CCN(Cc2ccc(Cc3ncc(F)c(-c4cc(F)c5nc(C)n(C(C)C)c5c4)n3)nc2)CC1

>  <system_tested>
A498 renal

>  <growth>
34.5% (inactive)

$$$$
>  <compound>
CN1CCN(CC(=O)Nc2ccc(-c3nc4ccccc4s3)cc2)CC1

>  <system_tested>
A498 renal

>  <growth>
59.5% (inactive)

$$$$
>  <compound>
O=C(Nc1ccc(C(=O)Nc2ccc(C3=NCCCN3)cc2)cc1)Nc1ccc(C2=NCCCN2)cc1

>  <system_tested>
A498 renal

>  <growth>
119% (inactive)

$$$$

----------
Tested on: ACHN renal
Experiment: NCI-60 one-dose screen, 48 h
Conditions: 10 µM unless noted
This is part of a sample that, as a whole, favours compounds with a hit. Of some 83,000 tested, about 20% had one in any assay. The source made the active and inactive calls. How the source made its calls: active means growth percent below 10; inactive means the rest.
Outcome codes: 1.0 (active), 0.0 (inactive)

>  <compound>
C=C1CC[C@@H]2[C@](C)(COC(C)=O)[C@H](OC(C)=O)CC[C@@]2(C)[C@@H]1C/C=C1/C(=O)OC[C@H]1OC(C)=O

>  <class_label>
0.0

$$$$
>  <compound>
COC(=O)C1=C(C(=O)OC)C23C=C(C)C1C2=C(C)C1(CC1)[C@@](C)(O)C3=O (some centres not stated)

>  <class_label>
1.0

$$$$
>  <compound>
CO[C@@H](C(=O)N1Cc2[nH]nc(NC(=O)c3ccc(N4CCN(C)CC4)cc3)c2C1)c1ccccc1

>  <class_label>
0.0

$$$$
>  <compound>
O=C1C=CC2(NN=C(c3ccccc3)N2c2cccc(Cl)c2)C(Cl)=C1 (configuration not stated)

>  <class_label>
0.0

$$$$
>  <compound>
CNC(=O)c1c(C)oc2cc(Oc3ncnc4cc(OC)c(OC)cc34)ccc12

>  <class_label>
0.0

$$$$
>  <compound>
CCCCCCCC(=O)SCC/C=C/[C@@H]1CC(=O)NCc2cc(ccn2)C2=N[C@@](C)(CS2)C(=O)N[C@@H](C(C)C)C(=O)O1

>  <class_label>
1.0

$$$$
>  <compound>
Nc1nc(N)c2cc(CNc3ccc(C(=O)NC(CC(=O)O)C(=O)O)cc3)ccc2n1 (configuration not stated)

>  <class_label>
0.0

$$$$
>  <compound>
Cn1cc(-c2ncnc3ccc(-c4cnc(Cl)c(NS(C)(=O)=O)c4)cc23)c2ccccc21

>  <class_label>
0.0

$$$$
>  <compound>
CCN1CCN(Cc2ccc(Cc3ncc(F)c(-c4cc(F)c5nc(C)n(C(C)C)c5c4)n3)nc2)CC1

>  <class_label>
0.0

$$$$
>  <compound>
Cc1cc(C(=O)NOCCO)c(Nc2ccc(I)cc2F)n(C)c1=O

>  <class_label>
0.0

$$$$
>  <compound>
Cc1cc(Oc2ccccc2)ccc1Nc1ncnc2ccc(-c3cnc(Cl)c(NS(C)(=O)=O)c3)cc12

>  <class_label>
0.0

$$$$
>  <compound>
CC(C)C1CCC(C)C(C2(C#N)C(N)=NC(N)=C2C#N)C1=O (configuration not stated)

>  <class_label>
0.0

$$$$

----------
Tested on: M14 melanoma
Assay: NCI-60 one-dose screen, 48 h
Conditions: 10 µM unless noted
This is part of a sample that, as a whole, favours compounds with a hit. Of some 83,000 tested, about 20% had one in any assay. Active and inactive are the calls of the source. How the source made its calls: active means growth percent below 10; inactive means the rest.
Classes used: true (1) (active), false (0) (inactive)

>  <line_notation>
CCCNC(=O)c1cn2ncnc(Nc3cc(C(=O)NC4CC4)ccc3C)c2c1C

>  <class_label>
false (0)

$$$$
>  <line_notation>
O=C(Nc1ccc(Nc2ncnc3sc4c(c23)CCOC4)cc1)Nc1ccc(Cl)c(C(F)(F)F)c1

>  <class_label>
false (0)

$$$$
>  <line_notation>
CCOC(=O)c1sc(NC(=O)COc2ccc(/C=C3\Cc4ccc(Cl)cc4C3=O)cc2)nc1C

>  <class_label>
false (0)

$$$$
>  <line_notation>
CC#CC(=O)N1CCC[C@H]1c1nc(-c2ccc(C(=O)Nc3ccccn3)cc2)c2c(N)nccn12

>  <class_label>
false (0)

$$$$
>  <line_notation>
Cc1cc(C(=O)NOCCO)c(Nc2ccc(I)cc2F)n(C)c1=O

>  <class_label>
true (1)

$$$$
>  <line_notation>
COc1cc(Nc2ncc(F)c(Nc3ccc4c(n3)NC(=O)C(C)(C)O4)n2)cc(OC)c1OC

>  <class_label>
false (0)

$$$$
>  <line_notation>
CS(=O)(=O)N1CCc2c(-c3cnc(N)nc3)nc(N3CCOCC3)nc21

>  <class_label>
false (0)

$$$$
>  <line_notation>
NC1=Nc2ccccc2N(O)N1

>  <class_label>
false (0)

$$$$
>  <line_notation>
COc1ccc(/C(C)=C(\c2ccc(Cl)cc2)c2ccc(OCCN3CCCCCC3)cc2)cc1

>  <class_label>
false (0)

$$$$
>  <line_notation>
CN1C/C=C\CCOc2cccc(c2)-c2ccnc(n2)Nc2cccc(c2)C1

>  <class_label>
true (1)

$$$$

----------
System: MDA-MB-231 breast
Assay: NCI-60 one-dose screen, 48 h
Details: 10 µM unless noted
This is part of a sample that, as a whole, favours compounds with a hit. Of some 83,000 tested, about 20% had one in any assay. Activity calls are given as the source filed them. The calls were made as follows: active = growth percent below 10; inactive = the rest.
Outcomes: active, inactive

>  <line_notation>
CNC(=O)c1cc(COc2nnc(Nc3ccc(Cl)cc3)c3ccoc23)ccn1

>  <system_tested>
MDA-MB-231 breast

>  <class_label>
inactive

$$$$
>  <line_notation>
Cc1nc2ccc(-n3ncc(C(=O)c4cc5ccccc5[nH]4)c3N)cc2[nH]1

>  <system_tested>
MDA-MB-231 breast

>  <class_label>
inactive

$$$$
>  <line_notation>
CC12O[C@H](C[C@@H](OC(=O)CCC(=O)O)[C@H]1O)n1c3ccccc3c3c4c(c5c6ccccc6n2c5c31)C(=O)NC4=O

>  <system_tested>
MDA-MB-231 breast

>  <class_label>
inactive

$$$$
>  <line_notation>
CCOc1cc2ncc(C#N)c(Nc3ccc(F)c(Cl)c3)c2cc1NC(=O)/C=C/CN(C)C

>  <system_tested>
MDA-MB-231 breast

>  <class_label>
active

$$$$
>  <line_notation>
CN1CCN(CCCOc2cccc3nc(Nc4ccc(Cl)c(C(F)(F)F)c4)ccc23)CC1

>  <system_tested>
MDA-MB-231 breast

>  <class_label>
active

$$$$
>  <line_notation>
CCOC(=O)C1=C(C)N=C2Sc3cc(OC(F)(F)F)ccc3N2[C@H]1c1ccccn1

>  <system_tested>
MDA-MB-231 breast

>  <class_label>
inactive

$$$$
>  <line_notation>
CN(C)C1CCN(C(=O)c2ccc(NC(=O)Nc3ccc(-c4nc(N5CCOCC5)nc(N5CCOCC5)n4)cc3)cc2)CC1

>  <system_tested>
MDA-MB-231 breast

>  <class_label>
inactive

$$$$
>  <line_notation>
O=C(c1ccc(F)c(F)c1Nc1ccc(I)cc1F)N1CC(O)([C@@H]2CCCCN2)C1

>  <system_tested>
MDA-MB-231 breast

>  <class_label>
active

$$$$
>  <line_notation>
NC[C@@](O)(c1ccc(Cl)cc1)c1ccc(-c2cn[nH]c2)cc1

>  <system_tested>
MDA-MB-231 breast

>  <class_label>
inactive

$$$$
